Synaptic vesicular amine transporter (Rattus norvegicus, UniProt Q01827): recorded Ki for assorted compounds
Sequence (Q01827 whole entry): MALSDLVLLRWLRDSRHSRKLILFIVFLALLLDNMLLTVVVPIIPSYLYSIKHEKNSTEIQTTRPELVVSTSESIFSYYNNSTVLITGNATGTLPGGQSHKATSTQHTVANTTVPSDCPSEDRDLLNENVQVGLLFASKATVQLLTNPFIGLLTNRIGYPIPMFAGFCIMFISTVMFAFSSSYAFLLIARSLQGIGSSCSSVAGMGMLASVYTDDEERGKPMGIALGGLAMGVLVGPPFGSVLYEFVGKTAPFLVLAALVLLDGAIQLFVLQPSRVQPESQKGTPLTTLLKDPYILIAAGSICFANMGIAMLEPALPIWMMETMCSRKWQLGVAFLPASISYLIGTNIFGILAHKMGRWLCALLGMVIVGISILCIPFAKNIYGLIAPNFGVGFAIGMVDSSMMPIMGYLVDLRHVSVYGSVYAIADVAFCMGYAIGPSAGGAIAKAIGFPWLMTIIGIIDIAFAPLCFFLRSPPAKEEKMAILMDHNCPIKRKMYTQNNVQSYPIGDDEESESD
testReadout: Ki (µM)

* c1ccc(CCC[C@H]2CCC[C@@H](CCc3ccccc3)N2)cc1 | 4.6
* c1ccc(C[C@H]2CCC[C@@H](c3ccccc3)N2)cc1 | 24.1
* c1ccc(CC[C@H]2CCC[C@@H](c3ccccc3)N2)cc1 | 28.4
* CN1[C@@H](CCCc2ccccc2)CCC[C@H]1c1ccccc1 | 62.5
* CN1[C@@H](Cc2ccccc2)CCC[C@H]1c1ccccc1 | 13.6
* c1ccc(CC[C@H]2CCC[C@@H](Cc3ccccc3)N2)cc1 | 12.2
* CN1[C@@H](Cc2ccccc2)CCC[C@H]1Cc1ccccc1 | 10.5
* c1ccc(CCC[C@H]2CCC[C@@H](c3ccccc3)N2)cc1 | 28.6
* CN1[C@H](CCCc2ccccc2)CCC[C@@H]1CCCc1ccccc1 | 1
* c1ccc(CCC[C@H]2CCC[C@@H](Cc3ccccc3)N2)cc1 | 1.13
* CN1[C@@H](CCCc2ccccc2)CCC[C@H]1CCc1ccccc1 | 0.88
